method_notes: in vitro
condition_parameters: human, Caco-2
property_label: Papp at […], 10 µM (×10⁻⁶ cm/s)
# value in ×10⁻⁶ cm/s; strip the unit string

Below, each entry is followed by its recorded Papp at […], 10 µM result.
smiles_text=Cc1cc(Nc2nc(N(C)c3c(F)cc(S(C)(=O)=O)cc3F)nc(-c3cn(C)cn3)c2C2CC2)n[nH]1 measured_result=4.6
smiles_text=Cc1cc(Nc2nc(N(C)c3c(F)cc(S(C)(=O)=O)cc3F)nc(-c3cc(C(C)(C)O)n(C)n3)c2C2CC2)n[nH]1 measured_result=7.8
smiles_text=Cc1cc(Nc2nc(N(C)c3c(F)cc(S(C)(=O)=O)cc3F)nc(-c3cnn(C)c3)c2C2CC2)n[nH]1 measured_result=28
smiles_text=Cc1cc(Nc2nc(N(C)c3c(F)cc(S(C)(=O)=O)cc3F)nc(-c3cn(C)c(C4CC4)n3)c2C2CC2)n[nH]1 measured_result=28

--- query ---
Find the recorded Papp at […], 10 µM belonging to Cc1cc(Nc2nc(N(C)c3c(F)cc(S(C)(=O)=O)cc3F)nc(-c3cn4c(n3)COCC4)c2C2CC2)n[nH]1 and report it. 12

###

method_notes: in vitro
condition_parameters: rhesus monkey, liver microsomes
property_label: microsomal CLint at 1 µM

Find the recorded microsomal CLint at 1 µM belonging to Cc1cc(Nc2nc(N(C)c3c(F)cc(S(C)(=O)=O)cc3F)nc(-c3cn(C)cn3)c2C2CC2)n[nH]1 and report it. < 7.7 µL/min/mg

###

method_notes: in vivo
condition_parameters: male, Beagle, dog, iv, 0.5 mg/kg
property_label: clearance at 24 h (mL/min/kg)
# value in mL/min/kg; strip the unit string

Find the recorded clearance at 24 h belonging to Cc1cc(Nc2nc(N(C)c3c(F)cc(S(C)(=O)=O)cc3F)nc(-c3cn(C)cn3)c2C2CC2)n[nH]1 and report it. 30

###

Catalogue of compounds with associated bioavailability at 24 h
method_notes: in vivo
condition_parameters: female, CD-1, mouse, po, 5 mg/kg

smiles_text=Cc1cc(Nc2nc(N(C)c3c(F)cc(S(C)(=O)=O)cc3F)nc(-c3cn(C)cn3)c2C2CC2)n[nH]1 property_label="bioavailability at 24 h" measured_result="≥ 100%"
smiles_text=Cc1cc(Nc2nc(N(C)c3c(F)cc(S(C)(=O)=O)cc3F)nc(-c3cn(C)nc3C)c2C2CC2)n[nH]1 property_label="bioavailability at 24 h" measured_result="> 100%"
smiles_text=Cc1cc(Nc2nc(N(C)c3c(F)cc(S(C)(=O)=O)cc3F)nc(-c3cnn(C)c3)c2C2CC2)n[nH]1 property_label="bioavailability at 24 h" measured_result="> 100%"

--- query ---
Find the recorded bioavailability at 24 h belonging to Cc1cc(Nc2nc(N(C)c3c(F)cc(S(C)(=O)=O)cc3F)nc(-c3cn(C)c(C4CC4)n3)c2C2CC2)n[nH]1 and report it. > 100%

###

method_notes: in vitro
condition_parameters: human, cryopreserved hepatocytes
Catalogue of compounds with associated hepatocyte CLint at 1 µM
# value in µL/min/1e6 cells; strip the unit string

Below, each entry is followed by its recorded hepatocyte CLint at 1 µM result.
smiles_text=CN(c1nc(Nc2cc(C3CC3)[nH]n2)c(C2CC2)c(-c2cnn(C)c2)n1)c1c(F)cc(S(C)(=O)=O)cc1F unit_info="µL/min/1e6 cells" measured_result=12
smiles_text=Cc1cc(Nc2nc(N(C)c3c(F)cc(S(C)(=O)=O)cc3F)nc(-c3cnn(C)c3CO)c2C2CC2)n[nH]1 unit_info="µL/min/1e6 cells" measured_result=6
smiles_text=Cc1cc(Nc2nc(N(C)c3c(F)cc(S(C)(=O)=O)cc3F)nc(N3CCOCC3)c2C2CC2)n[nH]1 unit_info="µL/min/1e6 cells" measured_result=50.9
smiles_text=C#Cc1cc(Nc2nc(N(C)c3c(F)cc(S(C)(=O)=O)cc3F)nc(-c3cnn(C)c3)c2C2CC2)n[nH]1 unit_info="µL/min/1e6 cells" measured_result=20.4

Find the recorded hepatocyte CLint at 1 µM belonging to Cc1cc(Nc2nc(N(C)c3c(F)cc(S(C)(=O)=O)cc3F)nc(-c3cn(C)c(C4CC4)n3)c2C2CC2)n[nH]1 and report it. 7.5

Find the recorded hepatocyte CLint at 1 µM belonging to Cc1cc(Nc2nc(N(C)c3c(F)cc(S(C)(=O)=O)cc3F)nc(-c3cn(C)nc3C)c2C2CC2)n[nH]1 and report it. 50.1

Find the recorded hepatocyte CLint at 1 µM belonging to Cc1cc(Nc2nc(N(C)c3c(F)cc(S(C)(=O)=O)cc3F)nc(-c3ccnnc3)c2C2CC2)n[nH]1 and report it. 51.5

Find the recorded hepatocyte CLint at 1 µM belonging to Cc1cc(Nc2nc(N(C)c3c(F)cc(S(C)(=O)=O)cc3F)nc(-c3cc(C(C)(C)O)n(C)n3)c2C2CC2)n[nH]1 and report it. 6

Find the recorded hepatocyte CLint at 1 µM belonging to Cc1cc(Nc2nc(N(C)c3c(F)cc(S(N)(=O)=O)cc3F)nc(-c3cnn(C)c3)c2C2CC2)n[nH]1 and report it. 19.4
